TGI values for the compounds below.
# System: SN12C renal
# Assay Summary: NCI tumour cell line growth inhibition, 48 h

Below are worked cases with known answers.
O=C(c1ccncc1)n1nc(-c2ccccc2)c(N=Nc2ccccc2[N+](=O)[O-])c1-c1ccccc1 : > 100 µM
N#C/C(=C/n1c(=S)[nH]c2ccc([N+](=O)[O-])cc21)C(N)=O : > 100 µM
NC(=S)NNc1c([N+](=O)[O-])cnn(-c2ccccc2)c1=O : 31.4 µM
CSc1cc(=O)n2c3ccccc3c3ccnc1c32 : > 100 µM

Attention now shifts to the item below.
Problem: Please give the measured TGI for this compound: Cc1ccc(-c2cc(-c3ccco3)c(C#N)c(=O)n2C2OC(OC(=O)c3ccccc3)C(OC(=O)c3ccccc3)C2OC(=O)c2ccccc2)cc1 (stereo not given)
Solution: > 100 µM

###

# Tested on: EKVX NSCLC
# Assay Summary: NCI tumour cell line growth inhibition, 48 h
TGI values for the compounds below.
Hi! Could you send only the number? It should be in µM, unit omitted.

Below are worked cases with known answers.
COc1cccc2c1C(=O)c1c(O)c3c(c(O)c1C2=O)C[C@H](O)C[C@@H]3OC1CC(N)C(O)C(C)O1 (some centres undefined) : 20.8
COC(=O)C1C(C(=O)OC)C2(OC(c3ccc(Cl)cc3)=CC2=O)C12OC(c1ccc(Cl)cc1)=CC2=O (centres undefined) : 54.9
CCn1c2ccc(C(=O)CCCN3CCCCC3)cc2c2cc(C(=O)CCCN3CCCCC3)ccc21 : 15.8
O=C(O)c1ccc2c(c1)CCCC(c1ccc(Cl)cc1Cl)=C2c1ccc(O[C@H]2CCN(CCCF)C2)cc1 : 25.3
CN(C)CCCNC(=O)c1cc(NC(=O)c2cc(NC(=O)CCCn3c4ccccc4c4ccccc43)cn2C)cn1C : 46.2
Fc1cc2[nH]ncc2c2c3c(c(-c4cn[nH]c4C(F)(F)F)nc12)C1CCC3C1 (centres undefined) : 5.91

Attention now shifts to the item below.
Problem: Please give the measured TGI for this compound: Cc1cc2c(cc1C)N(C(=O)CCl)CCN2C(=O)CCl
Solution: 4.64

###

# Tested on: SK-MEL-2 melanoma
# Assay Summary: NCI tumour cell line growth inhibition, 48 h
Readout Name: GI50

CNCCn1c(=O)c2cc(OC)c(OC)cc2c2ccc3cc4c(cc3c21)OCO4 : 0.533 µM

Problem: Please give the measured GI50 for this compound: Cc1ccc(-c2csc(NC(=O)CN3CCN(c4cc5c(cc4F)c(=O)c(C(=O)O)cn5C4CC4)CC3)n2)cc1
Solution: 1.33 µM

Problem: Please give the measured GI50 for this compound: O=C(O)c1ccc2c(c1)CCCC(c1ccc(Cl)cc1Cl)=C2c1ccc(O[C@H]2CCN(CCCF)C2)cc1
Solution: 14.3 µM

Problem: Please give the measured GI50 for this compound: COc1ccc(Cn2cc3c(c2)-c2oncc2CC3)cc1
Solution: 4.88 µM

Problem: Please give the measured GI50 for this compound: CC[PH+](CC)CC.O=COC1OC([S-])C(OC=O)C(OC=O)C1OC=O.[Au+] (stereo not drawn)
Solution: 1.47 µM

Problem: Please give the measured GI50 for this compound: COc1cc2c(=O)n(CCN)c3c4cc5c(cc4ccc3c2cc1OC)OCO5
Solution: 3.69 µM

Problem: Please give the measured GI50 for this compound: Nc1ccccc1C#C/C=C\C#Cc1ccccc1
Solution: 25.5 µM

Problem: Please give the measured GI50 for this compound: Cn1c2c(c3ccc(Cl)c(Cl)c31)C(C#N)C1(CCNCC1)NC2=O (stereo not drawn)
Solution: 2.12 µM

###

# Test system: HL-60(TB) leukemia
# Assay Summary: NCI tumour cell line growth inhibition, 48 h
Readout Name: TGI

Below are worked cases with known answers.
Cn1c(=O)c(-c2ccccc2)c(O)c2ccccc21 : > 100 µM
CCOC(=O)C1(C#N)C(c2ccccc2)CC(O)(c2ccc(Cl)cc2)C(C(=O)c2ccc(Cl)cc2)C1c1ccccc1 (stereo not given) : > 100 µM
Cc1cc(C)c(C(=O)c2no[n+]([O-])c2C(=O)c2c(C)cc(C)c(Br)c2C)c(C)c1Br : 15.2 µM
c1ccc2c(c1)Sc1nccc3ccnc-2c13 : > 100 µM

Attention now shifts to the item below.
Problem: Look up TGI with HL-60(TB) leukemia for this compound: COc1ccc(/C=c2\s/c(=C3/SC(=S)N(c4ccccc4)C3=O)n(-c3ccccc3)c2=O)cc1
Solution: > 100 µM

###

# Test system: COLO 205 colon
# Assay Summary: NCI tumour cell line growth inhibition, 48 h
Readout Name: GI50

COc1ccc2[nH]c(O)c(C(=Nc3ccc(N(C)C(=O)CN4CCN(C)CC4)cc3)c3ccccc3)c2c1 : 575 nM
OCCNc1ncnc2c1ncn2Cc1cccc(COc2cccc(OCc3cccc(Cn4cnc5c(NCCO)ncnc54)c3)c2)c1 : 13500 nM
Cc1cc(S(=O)(=O)NC#N)c(S/C(=N\Nc2ccc([N+](=O)[O-])cc2)c2ccc(Cl)cc2)cc1Cl : 15200 nM

Problem: Please give the measured GI50 for this compound: CCC[n+]1cc2cc(OC)c(OC)cc2c2c1-c1cc3c(cc1C2)OCO3
Solution: 1610 nM

Problem: Please give the measured GI50 for this compound: CC[PH+](CC)CC.O=COC1OC([S-])C(OC=O)C(OC=O)C1OC=O.[Au+] (stereo not given)
Solution: 2230 nM

###

GI50 values for the compounds below.
# System: UACC-257 melanoma
# Assay Summary: NCI tumour cell line growth inhibition, 48 h

Below are worked cases with known answers.
Fc1cc2[nH]ncc2c2c3c(c(-c4cn[nH]c4C(F)(F)F)nc12)C1CCC3C1 (stereo not given) : 1310 nM
COc1ccc2[nH]c(O)c(C(=Nc3ccc(N(C)C(=O)CN4CCN(C)CC4)cc3)c3ccccc3)c2c1 : 1730 nM
Cn1c2c(c3ccc(Cl)c(Cl)c31)C(C#N)C1(CCNCC1)NC2=O (stereo not given) : 1750 nM
COc1ccc2c(c1)/C(=C\c1c(Cl)[nH]c3ccc(OC)cc13)C(=O)N2 : 37300 nM
Cc1cc2c(cc1C)N(C(=O)CCl)CCN2C(=O)CCl : 1300 nM
Cc1cc(S(=O)(=O)NC#N)c(S/C(=N\Nc2ccc([N+](=O)[O-])cc2)c2ccc(Cl)cc2)cc1Cl : > 100000 nM
COc1ccc2cc(-c3c(-c4ccncc4)nc(-c4ccc(S(C)(=O)=O)cc4C)n3C)ccc2c1 : 7750 nM
Cc1nc2sccn2c1-c1csc(Nc2cccc(Cl)c2C)n1 : 2520 nM

Problem: Please give the measured GI50 for this compound: COc1ccc(Cn2c3c(cc(OS(=O)(=O)C(F)(F)F)c2=O)Cc2ccccc2-3)cc1
Solution: 5140 nM

Problem: Please give the measured GI50 for this compound: COc1ccccc1/C=C/C(=O)c1ccccc1
Solution: 13800 nM

###

# System: BT-549 breast
# Assay Summary: NCI tumour cell line growth inhibition, 48 h
Readout Name: TGI

Below are worked cases with known answers.
CCCCC1=C(C(=O)N2CCOCC2)C2(OCCO2)C1=O : 78.8 µM
CCOc1ccc(Nc2nc(N)nc(N)c2N)cc1 : 76.6 µM
COc1ccc(-c2c3c(n(C4OC(CO)C(O)C(O)C4O)c(=S)c2C#N)CCC3)cc1 (stereo not drawn) : > 100 µM
COC(=O)C1CCc2sc3ncnc(Nc4cn[nH]c4C(=O)Nc4ccc(CN5CCN(C)CC5)cc4)c3c21 (stereo not drawn) : 6.02 µM
COc1ccc(/C=c2\s/c(=C3/SC(=S)N(c4ccccc4)C3=O)n(-c3ccccc3)c2=O)cc1 : > 100 µM

Problem: Please give the measured TGI for this compound: CC(C)(C)OC(=O)NC(Cc1ccccc1)NC(=O)NC(=O)OCc1ccccc1 (stereo not drawn)
Solution: > 100 µM

Problem: Please give the measured TGI for this compound: CNCCn1c(=O)c2cc(OC)c(OC)cc2c2ccc3cc4c(cc3c21)OCO4
Solution: 4.37 µM

Problem: Please give the measured TGI for this compound: COc1cc(-c2cn(-c3ccc(Cl)c(Cl)c3)c(=O)n2C(C)=O)cc(OC)c1OC
Solution: 22.7 µM

Problem: Please give the measured TGI for this compound: CS(=O)(=O)Nc1ccc2c(c1)N(S(C)(=O)=O)CC2CCl (stereo not drawn)
Solution: > 100 µM

Problem: Please give the measured TGI for this compound: COc1ccccc1/C=C/C(=O)c1ccccc1
Solution: 23.9 µM

Problem: Please give the measured TGI for this compound: COc1ccc(Cn2cc3c(c2)-c2oncc2CC3)cc1
Solution: 66.1 µM

Problem: Please give the measured TGI for this compound: O=S(=O)(c1cc(Cl)ccc1Cl)n1ccnc1
Solution: > 100 µM

Problem: Please give the measured TGI for this compound: O=c1cccc(C2CC(CO)C3CCCCN3C2)[nH]1 (stereo not drawn)
Solution: > 100 µM

###

TGI values for the compounds below.
# Test system: NCI-H460 lung
# Assay Summary: NCI tumour cell line growth inhibition, 48 h

Below are worked cases with known answers.
Fc1cc2[nH]ncc2c2c3c(c(-c4cn[nH]c4C(F)(F)F)nc12)C1CCC3C1 (stereo unspecified) : 5.5 µM
CCCOc1ccc2nc(NC(=O)OC)[nH]c2c1 : > 100 µM
COc1ccc(/C=C2\CCCC(C(NO)c3ccc(OC)cc3)C2=NO)cc1 (stereo unspecified) : > 100 µM
COc1ccc2nc(/C(N)=C\C#N)ccc2c1 : > 100 µM
CN(C)CCCNC(=O)c1ccc2c(c1)oc1cc3ccccc3c(=O)n12 : 39.9 µM

Problem: Please give the measured TGI for this compound: CCC1=C(C(C)=O)[C@@H]2CCCCC[C@@H](C(=O)OC)C2C1=O (stereo partly specified)
Solution: > 100 µM

Problem: Please give the measured TGI for this compound: O=c1[nH]c2nc3ccccc3nc2[nH]c1=O
Solution: > 100 µM

Problem: Please give the measured TGI for this compound: O=c1c(Cc2ccc(Cl)cc2)nnc2sc(-c3ccc(-c4ccc(F)c(Cl)c4)o3)nn12
Solution: > 100 µM

Problem: Please give the measured TGI for this compound: COc1ccc(-c2oc3c(OC)c(OC)c(OC)c(OC)c3c(=O)c2OC)cc1OC
Solution: 57 µM

Problem: Please give the measured TGI for this compound: Cc1cccc(C)c1NC(=O)C1C(=O)N(c2c(C)cccc2C)C(=O)/C1=N\NC(N)=S (stereo unspecified)
Solution: > 100 µM

Problem: Please give the measured TGI for this compound: Cc1nc2sccn2c1-c1csc(Nc2cccc(Cl)c2C)n1
Solution: 20.3 µM

Data credit: PubChem BioAssay (NCI)
